Please go through the items and note down their TGI.
# Test system: HT29 colon
# TEST DETAILS: NCI tumour cell line growth inhibition, 48 h

Suppose we examine the compound COc1ccc2[nH]c3c(c2c1)CCN(C)CC3 ; what TGI value has been reported? > 100 µM

Then this compound: CC1OC(OCC2OC(Oc3c(-c4ccc(O)cc4)oc4cc(O)cc(O)c4c3=O)C(OC3OCC(O)(CO)C3O)C(O)C2O)C(O)C(O)C1O (stereo not given) > 100 µM

Then this compound: O=[N+]([O-])C1C(c2ccccc2)C12c1ccccc1-c1ccccc12 (stereo not given) 15.5 µM

Then this compound: O=C(c1ccccc1)C(C(=O)c1ccccc1)C1(O)C(=O)c2ccccc2C1=O > 100 µM

Then this compound: COc1ccc2nc3cc(Cl)ccc3c(NCCCCCC(=O)NC(COc3cnc4c(ccc5cccnc54)c3)COc3cnc4c(ccc5cccnc54)c3)c2c1 > 100 µM

Then this compound: CC1(C)OC2OC(COC(=O)C=[N+]=[N-])C3OC(C)(C)OC3C2O1 (stereo not given) > 100 µM

Then this compound: COc1cc(C2C=C(c3cccc(NC(C)=O)c3)Nc3ncnn32)cc(OC)c1OC (stereo not given) > 100 µM

Then this compound: N#CCC1COc2ccccc2O1 (stereo not given) > 10 µM

Then this compound: COc1ccc2c3c1OC1CC(O)C=CC31CCN(C)C2 (stereo not given) > 150 µM

Then this compound: COC(=O)/C=C\Sc1ccn(/C=C\C(=O)OC)c(=S)n1 52.9 µM

All figures here come from PubChem BioAssay (NCI).
